Cited source for all entries: paper PMC7531004

Test system: Streptococcus pyogenes SSI-9
Experiment description: Antibacterial activity assay of bead-derived peptides (three concentrations)
Type: cell-based
Set-up: key: +++: inhibition by the 640-fold diluted peptide solution; ++: inhibition by the 160-fold diluted solution; +: inhibition by the 40-fold diluted solution; -: no inhibition
Run parameters: S. pyogenes, bead-derived peptide solution, three concentrations
Where a SMILES comes first, the peptide text is derived from it. [ ]: non-standard residue; d: D form. The star is where a group is joined. NHCH2CH2OH = OCCN*; For = O=C*
Recorded endpoint: antibacterial activity

Molecule	Observed
CC(C)C[C@@H](NC(=O)[C@H](C)NC(=O)[C@H](NC(=O)[C@H](C)NC(=O)CNC(=O)[C@@H](NC=O)C(C)C)C(C)C)C(=O)N[C@H](C(=O)N[C@H](CC(C)C)C(=O)N[C@@H](Cc1c[nH]c2ccccc12)C(=O)N[C@@H](C(=O)N[C@@H](Cc1c[nH]c2ccccc12)C(=O)N[C@H](CC(C)C)C(=O)N[C@@H](Cc1c[nH]c2ccccc12)C(=O)N[C@H](CC(C)C)C(=O)N[C@@H](Cc1c[nH]c2ccccc12)C(=O)NCCO)[C@H](C)O)C(C)C [compound 11400] (For-VGA[dV]A[dL]V[dL]W[dT]W[dL]W[dL]W-NHCH2CH2OH)	+
CC(C)C[C@@H](NC(=O)[C@H](Cc1c[nH]c2ccccc12)NC(=O)[C@@H](CC(C)C)NC(=O)[C@H](Cc1c[nH]c2ccccc12)NC(=O)[C@@H](CC(C)C)NC(=O)[C@H](Cc1c[nH]c2ccccc12)NC(=O)[C@H](NC(=O)[C@@H](NC(=O)[C@H](NC(=O)[C@H](C)NC(=O)[C@H](NC(=O)[C@H](C)NC(=O)CNC(=O)[C@@H](NC=O)C(C)C)C(C)C)C(C)C)C(C)C)C(C)C)C(=O)N[C@@H](Cc1c[nH]c2ccccc12)C(=O)NCCO [compound 3311] (For-VGA[dV]A[dV]V[dV]W[dL]W[dL]W[dL]W-NHCH2CH2OH)	++

* * *

Run parameters: cell viability/%
Where a SMILES comes first, the peptide text is derived from it. [ ]: non-standard residue; d: D form. The star is where a group is joined. NHCH2CH2OH = OCCN*; For = O=C*
Below: a set of entries, each annotated with reported viability.
# number only, unit % dropped from output

Compound	viability (%)
CC(C)C[C@@H](NC(=O)[C@H](C)NC(=O)CNC(=O)[C@@H](NC=O)C(C)C)C(=O)N[C@@H](C)C(=O)N[C@H](CC(C)C)C(=O)N[C@H](C(=O)N[C@@H](C(=O)N[C@@H](Cc1c[nH]c2ccccc12)C(=O)N[C@H](CC(C)C)C(=O)N[C@@H](Cc1c[nH]c2ccccc12)C(=O)N[C@H](CC(C)C)C(=O)N[C@@H](Cc1c[nH]c2ccccc12)C(=O)N[C@@H](C(=O)N[C@@H](Cc1c[nH]c2ccccc12)C(=O)NCCO)C(C)C)C(C)C)C(C)C [compound 1796] (For-VGA[dL]A[dL]V[dV]W[dL]W[dL]W[dV]W-NHCH2CH2OH)	0

Field: next compound
Record request: viability value, item CNC(=O)C[C@@H](NC(=O)[C@@H](NC(=O)[C@H](NC(=O)[C@H](C)NC(=O)[C@H](NC(=O)[C@H](C)NC(=O)CNC(=O)[C@@H](NC=O)C(C)C)C(C)C)C(C)C)C(C)C)C(=O)N[C@@H](Cc1c[nH]c2ccccc12)C(=O)N[C@H](CC(C)C)C(=O)N[C@@H](Cc1c[nH]c2ccccc12)C(=O)N[C@@H](C(=O)N[C@@H](Cc1c[nH]c2ccccc12)C(=O)N[C@@H](C(=O)N[C@@H](Cc1c[nH]c2ccccc12)C(=O)NCCO)C(C)C)C(C)C [compound 5536] (For-VGA[dV]A[dV]V[dD](NHMe)W[dL]W[dV]W[dV]W-NHCH2CH2OH) 100

* * *

Run parameters: cell viability/%
Where a SMILES comes first, the peptide text is derived from it. [ ]: non-standard residue; d: D form. The star is where a group is joined. NHCH2CH2OH = OCCN*; For = O=C*
Recorded endpoint: viability (%)
# number only, unit % dropped from output

Compound	viability / %
CNC(=O)C[C@@H](NC(=O)[C@H](Cc1c[nH]c2ccccc12)NC(=O)[C@H](NC(=O)[C@H](Cc1c[nH]c2ccccc12)NC(=O)[C@H](NC(=O)[C@H](Cc1c[nH]c2ccccc12)NC(=O)[C@@H](CC(C)C)NC(=O)[C@@H](NC(=O)[C@@H](CC(C)C)NC(=O)[C@H](C)NC(=O)[C@H](NC(=O)[C@H](C)NC(=O)CNC(=O)[C@@H](NC=O)C(C)C)C(C)C)C(C)C)C(C)C)C(C)C)C(=O)N[C@@H](Cc1c[nH]c2ccccc12)C(=O)NCCO [compound 3866] (For-VGA[dV]A[dL]V[dL]W[dV]W[dV]W[dD](NHMe)W-NHCH2CH2OH)	100

Field: next compound
Record request: viability value, item CC(C)C[C@@H](NC(=O)[C@H](C)NC(=O)CNC(=O)[C@@H](NC=O)C(C)C)C(=O)N[C@@H](C)C(=O)N[C@@H](C(=O)N[C@H](C(=O)N[C@@H](C(=O)N[C@@H](Cc1c[nH]c2ccccc12)C(=O)N[C@@H](C(=O)N[C@@H](Cc1c[nH]c2ccccc12)C(=O)N[C@H](CC(C)C)C(=O)N[C@@H](Cc1c[nH]c2ccccc12)C(=O)N[C@@H](C(=O)N[C@@H](Cc1c[nH]c2ccccc12)C(=O)NCCO)C(C)C)[C@H](C)O)C(C)C)C(C)C)C(C)C [compound 5657] (For-VGA[dL]A[dV]V[dV]W[dT]W[dL]W[dV]W-NHCH2CH2OH) 81.3

* * *

Tested on: Streptococcus pyogenes SSI-9
Experiment description: Antibacterial activity assay of bead-derived peptides (three concentrations)
Assay type: cell-based
Design: key: +++: inhibition by the 640-fold diluted peptide solution; ++: inhibition by the 160-fold diluted solution; +: inhibition by the 40-fold diluted solution; -: no inhibition
Run parameters: S. pyogenes, bead-derived peptide solution, three concentrations
Where a SMILES comes first, the peptide text is derived from it. [ ]: non-standard residue; d: D form. The star is where a group is joined. NHCH2CH2OH = OCCN*; For = O=C*
Recorded endpoint: antibacterial activity

Before answering, review these 5 worked examples.
Compound	Target system	antibacterial activity
CNC(=O)C[C@@H](NC(=O)[C@H](Cc1c[nH]c2ccccc12)NC(=O)[C@@H](CC(C)C)NC(=O)[C@@H](NC(=O)[C@@H](CC(C)C)NC(=O)[C@H](C)NC(=O)[C@@H](CC(C)C)NC(=O)[C@H](C)NC(=O)CNC(=O)[C@@H](NC=O)C(C)C)C(C)C)C(=O)N[C@@H](Cc1c[nH]c2ccccc12)C(=O)N[C@@H](C(=O)N[C@@H](Cc1c[nH]c2ccccc12)C(=O)N[C@H](CC(C)C)C(=O)N[C@@H](Cc1c[nH]c2ccccc12)C(=O)NCCO)C(C)C [compound 2432] (For-VGA[dL]A[dL]V[dL]W[dD](NHMe)W[dV]W[dL]W-NHCH2CH2OH)	Streptococcus pyogenes SSI-9	-
CC(C)C[C@@H](NC(=O)[C@H](C)NC(=O)[C@H](NC(=O)[C@H](C)NC(=O)CNC(=O)[C@@H](NC=O)C(C)C)C(C)C)C(=O)N[C@H](C(=O)N[C@@H](C(=O)N[C@@H](Cc1c[nH]c2ccccc12)C(=O)N[C@H](CC(C)C)C(=O)N[C@@H](Cc1c[nH]c2ccccc12)C(=O)N[C@@H](C(=O)N[C@@H](Cc1c[nH]c2ccccc12)C(=O)N[C@@H](C(=O)N[C@@H](Cc1c[nH]c2ccccc12)C(=O)NCCO)C(C)C)C(C)C)C(C)C)C(C)C [compound 8697] (For-VGA[dV]A[dL]V[dV]W[dL]W[dV]W[dV]W-NHCH2CH2OH)	Streptococcus pyogenes SSI-9	+
CC(C)C[C@@H](NC(=O)[C@H](C)NC(=O)[C@H](NC(=O)[C@H](C)NC(=O)CNC(=O)[C@@H](NC=O)C(C)C)C(C)C)C(=O)N[C@H](C(=O)N[C@@H](C(=O)N[C@@H](Cc1c[nH]c2ccccc12)C(=O)N[C@H](CC(C)C)C(=O)N[C@@H](Cc1c[nH]c2ccccc12)C(=O)N[C@@H](C(=O)N[C@@H](Cc1c[nH]c2ccccc12)C(=O)N[C@@H](C(=O)N[C@@H](Cc1c[nH]c2ccccc12)C(=O)NCCO)[C@H](C)O)C(C)C)[C@H](C)O)C(C)C [compound 3328] (For-VGA[dV]A[dL]V[dT]W[dL]W[dV]W[dT]W-NHCH2CH2OH)	Streptococcus pyogenes SSI-9	-
CC(C)C[C@@H](NC(=O)[C@H](C)NC(=O)CNC(=O)[C@@H](NC=O)C(C)C)C(=O)N[C@@H](C)C(=O)N[C@H](CC(C)C)C(=O)N[C@H](C(=O)N[C@@H](C(=O)N[C@@H](Cc1c[nH]c2ccccc12)C(=O)N[C@@H](C(=O)N[C@@H](Cc1c[nH]c2ccccc12)C(=O)N[C@@H](C(=O)N[C@@H](Cc1c[nH]c2ccccc12)C(=O)N[C@@H](C(=O)N[C@@H](Cc1c[nH]c2ccccc12)C(=O)NCCO)C(C)C)C(C)C)C(C)C)C(C)C)C(C)C [compound 7845] (For-VGA[dL]A[dL]V[dV]W[dV]W[dV]W[dV]W-NHCH2CH2OH)	Streptococcus pyogenes SSI-9	+
CC(C)C[C@@H](NC(=O)[C@H](C)NC(=O)CNC(=O)[C@@H](NC=O)C(C)C)C(=O)N[C@@H](C)C(=O)N[C@@H](C(=O)N[C@H](C(=O)N[C@H](CC(C)C)C(=O)N[C@@H](Cc1c[nH]c2ccccc12)C(=O)N[C@H](CC(C)C)C(=O)N[C@@H](Cc1c[nH]c2ccccc12)C(=O)N[C@H](CC(C)C)C(=O)N[C@@H](Cc1c[nH]c2ccccc12)C(=O)N[C@H](CC(C)C)C(=O)N[C@@H](Cc1c[nH]c2ccccc12)C(=O)NCCO)C(C)C)C(C)C [compound 9628] (For-VGA[dL]A[dV]V[dL]W[dL]W[dL]W[dL]W-NHCH2CH2OH)	Streptococcus pyogenes SSI-9	+

Record request: antibacterial activity value, item CC(C)C[C@@H](NC(=O)[C@H](C)NC(=O)[C@H](NC(=O)[C@H](C)NC(=O)CNC(=O)[C@@H](NC=O)C(C)C)[C@H](C)O)C(=O)N[C@H](C(=O)N[C@H](CC(C)C)C(=O)N[C@@H](Cc1c[nH]c2ccccc12)C(=O)N[C@H](CC(C)C)C(=O)N[C@@H](Cc1c[nH]c2ccccc12)C(=O)N[C@@H](C(=O)N[C@@H](Cc1c[nH]c2ccccc12)C(=O)N[C@@H](C(=O)N[C@@H](Cc1c[nH]c2ccccc12)C(=O)NCCO)C(C)C)C(C)C)C(C)C [compound 9125] (For-VGA[dT]A[dL]V[dL]W[dL]W[dV]W[dV]W-NHCH2CH2OH) -

Record request: antibacterial activity value, item CC(C)C[C@@H](NC(=O)[C@H](Cc1c[nH]c2ccccc12)NC(=O)[C@H](NC(=O)[C@@H](NC(=O)[C@H](NC(=O)[C@H](C)NC(=O)[C@H](NC(=O)[C@H](C)NC(=O)CNC(=O)[C@@H](NC=O)C(C)C)C(C)C)C(C)C)C(C)C)C(C)C)C(=O)N[C@@H](Cc1c[nH]c2ccccc12)C(=O)N[C@@H](C(=O)N[C@@H](Cc1c[nH]c2ccccc12)C(=O)N[C@@H](C(=O)N[C@@H](Cc1c[nH]c2ccccc12)C(=O)NCCO)C(C)C)C(C)C [compound 169] (For-VGA[dV]A[dV]V[dV]W[dL]W[dV]W[dV]W-NHCH2CH2OH) ++

Record request: antibacterial activity value, item CC(C)C[C@@H](NC(=O)[C@H](C)NC(=O)[C@H](NC(=O)[C@H](C)NC(=O)CNC(=O)[C@@H](NC=O)C(C)C)C(C)C)C(=O)N[C@H](C(=O)N[C@@H](C(=O)N[C@@H](Cc1c[nH]c2ccccc12)C(=O)N[C@@H](C(=O)N[C@@H](Cc1c[nH]c2ccccc12)C(=O)N[C@H](CC(C)C)C(=O)N[C@@H](Cc1c[nH]c2ccccc12)C(=O)N[C@H](CC(C)C)C(=O)N[C@@H](Cc1c[nH]c2ccccc12)C(=O)NCCO)C(C)C)[C@H](C)O)C(C)C [compound 7840] (For-VGA[dV]A[dL]V[dT]W[dV]W[dL]W[dL]W-NHCH2CH2OH) -
